Listed here are compounds together with their documented melting point.
Express your answer in °C, writing the number without its unit.

// known answers, use as guide
input-smiles	melting point (°C)
CN(C)CCOc1ccc(-c2ccc(=O)n(Cc3ccc(Cl)cc3F)c2)cc1	85
COC(=O)CCc1ccc(-c2ccc(=O)n(Cc3ccc(Cl)cc3)c2)cc1	105
CNC(=O)Cc1ccc(-c2ccc(=O)n(Cc3ccc(Cl)cc3)c2)cc1	183
O=c1ccc(-c2ccc(O)cc2)cn1Cc1ccc(Cl)cc1	202

May I ask what melting point has been recorded for O=c1ccc(-c2ccc3nccnc3c2)cn1Cc1ccc(Cl)cc1 ? 120

###

reported-endpoint: melting point (°C)
Express your answer in °C, writing the number without its unit.

// known answers, use as guide
input-smiles	measured
O=c1ccc(-c2ccc(N3CCOCC3)cc2)cn1Cc1ccc(Cl)cc1	126
O=c1ccc(-c2ccc(OC(F)(F)F)cc2)cn1Cc1ccccc1	115
COc1ccc(-c2ccc(=O)n(Cc3ccccc3Cl)c2)cc1	125

May I ask what melting point has been recorded for O=c1ccc(-c2ccc3ccccc3c2)cn1Cc1ccccc1 ? 114

May I ask what melting point has been recorded for O=c1ccc(-c2ccc(OCc3ccco3)cc2)cn1Cc1ccc(Cl)cc1F ? 114

May I ask what melting point has been recorded for CSc1ccc(-c2ccc(=O)n(Cc3ccc(Cl)cc3)c2)cc1 ? 132

May I ask what melting point has been recorded for N#Cc1ccc(-c2ccc(=O)n(Cc3ccc(F)c(F)c3)c2)cc1 ? 139
